- System: CASKI
- assay_notes: Primary qHTS to identify gynecologic anti-cancer compounds using libraries of approved drugs and bioactive compounds (AID 1345084); further: nearly all actives have a fitted effect of over 55% in size
- experimental_conditions: Gynecologic cancer cell panel viability, ATPlite luminescence, 48 h; series mostly up to 57.5 µM
Results filed as inconclusive are left out. Calls of active or inactive are those of the source. The call rests on the fitted dose curve; in most records, active means well fitted cell-killing curve with a large enough effect; inconclusive means small, poorly fitted or top-dose-only effect, or effect the other way; inactive means flat fitted curve, though single readings scatter.
Hi there, use one of these labels in your reply, thanks! active, inactive

In this assay, the call recorded for CCCCOC(=O)c1ccccc1C(=O)OCc1ccccc1 was what?
inactive

Please indicate how the test categorized CC(=O)[O][Hg][c]1ccccc1 .
active

Recorded call for Cc1cc(O)ccc1Cl ?
inactive

Outcome? CCc1c(C(=O)C(N)=O)c2c(OCC(=O)O)cccc2n1Cc1ccccc1
inactive

In this assay, the call recorded for O=[N+]([O-])c1c2ccccc2cc2ccccc12 was what?
inactive

Each compound tested received a call. Report the one for O=C1C(I)=CC(=C(c2cc(I)c(O)c(I)c2)c2ccccc2C(=O)O)C=C1I .
inactive

Write down the call the test reported for this compound. Item: Nc1ccc(Cl)cc1
inactive

Which result was noted for this compound in the test: OCCCBr
inactive

Tell me the recorded outcome of this test for CC(=O)NCCc1c[nH]c2ccccc12 .
inactive

For this compound, state the assay outcome: CCN(CC)C(=O)c1ccc(C2=CC3(CCNCC3)Oc3cccc(O)c32)cc1
inactive

Tell me the recorded outcome of this test for CCCCC(CC)COC(=O)c1ccccc1C(=O)OCC(CC)CCCC (configuration not stated) .
inactive

Record lookup: outcome of this test for CCNC(=O)CC1N=C(c2ccc(Cl)cc2)c2cc(OC)ccc2-n2c(C)nnc21 (configuration not stated) ?
inactive

What did this assay record as the result for CCO/N=C(\CC)C1=C(O)CC(c2c(C)cc(C)cc2C)CC1=O (configuration not stated) ?
inactive

Dear all, I need the recorded test outcome for CCC(=O)O[C@@H]1C=C2CCC3C(CCC4(C)C3CC[C@@H]4OC(=O)CC)C2CC1 (some centres not stated) , thank you.
inactive

Record request — test call for COc1nn(CSP(=S)(OC)OC)c(=O)s1
inactive

What classification did CCCCCCCCc1ccc(O)cc1 end up with in this test?
inactive

Which result was noted for this compound in the test: CC1=C(C(=O)O)N2C(=O)[C@@H](N)[C@H]2SC1
inactive

Could you please tell me the result logged for Oc1ccc2c3c1O[C@H]1[C@@H](O)C=C[C@H]4[C@@H](C2)NCC[C@@]341 in this assay?
inactive

What did this assay record as the result for CCNC(=O)C[C@@H]1N=C(c2ccc(Cl)cc2)c2cc(OC)ccc2-n2c(C)nnc21 ?
inactive

Can you look up the reported call for CCOCCOC(C)=O for me?
inactive

Any idea what this test logged for O=C(O)CNC(=O)c1c(O)c2ccccc2n(Cc2ccccc2)c1=O ?
inactive

Please let me know the test result on file for O=S(=O)(O)C(F)(F)C(F)(F)C(F)(F)C(F)(F)C(F)(F)C(F)(F)C(F)(F)C(F)(F)F .
inactive

====

- assay_notes: qHTS for Inhibitors of the Functional Ribonucleoprotein Complex (vRNP) of Lassa (LASV) Arenavirus: LASV Primary Screen - GLuc reporter signal (AID 1347082); further: nearly all actives have a fitted effect of over 60% in size
- experimental_conditions: LASV minigenome vRNP, Gaussia luciferase reporter; series mostly up to 57.5 µM
Records with an inconclusive call do not appear. Activity calls are given as the source filed them. Calls follow the shape of the full dose curve; tested in HEK293 reporter line.
// allowed return values: active, inactive

For this compound, state the assay outcome: C[C@H]1CCCC=CC2C[C@H](O)C[C@@H]2[C@H](O)C=CC(=O)O1 (stereo partly drawn)
active

Field: outcome | Entry: CC(C)(C)c1ccc(O)c(O)c1
inactive

Could you check what this test reported for CC(C)C(=O)Nc1ncc(-c2cc(C(F)F)nn2-c2c(Cl)cccc2Cl)s1 ?
inactive
